A collection of compounds and their measured viability
- Tested on: primary ALL patient cells (S048)
- assay.overview: viability relative to DMSO control (fraction); higher = less drug effect (more viable cells)
- measurement.context: 0.04 µM; 48 h
quantity.measured: viability

>>> test_value("COc1cccc2c1C(=O)c1c(O)c3c(c(O)c1C2=O)C[C@@](O)(C(=O)CO)C[C@@H]3O[C@H]1C[C@H](N)[C@H](O)[C@H](C)O1")
0.418
>>> test_value("Cc1nc(Nc2ncc(C(=O)Nc3c(C)cccc3Cl)s2)cc(N2CCN(CCO)CC2)n1")
0.911
>>> test_value("CC(C)C[C@H](NC(=O)CNC(=O)c1cc(Cl)ccc1Cl)B(O)O")
0.94
>>> test_value("CC(C)(C)C[C@@H]1N[C@@H](C(=O)N[C@H]2CC[C@H](O)CC2)[C@H](c2cccc(Cl)c2F)[C@]12C(=O)Nc1cc(Cl)ccc12")
0.992
>>> test_value("C/C=C1\\NC(=O)[C@H]2CSSCC/C=C/[C@H](CC(=O)N[C@H](C(C)C)C(=O)N2)OC(=O)[C@H](C(C)C)NC1=O")
0.0497
>>> test_value("O=C1c2c(O)ccc(O)c2C(=O)c2c(NCCNCCO)ccc(NCCNCCO)c21")
0.0767

----------
Let's look at some molecules and their measured viability.
- Tested on: primary CLL patient cells (S031)
- assay.overview: viability relative to DMSO control (fraction); higher = less drug effect (more viable cells)
- measurement.context: 15 µM; 48 h
quantity.measured: viability

>>> test_value("N#Cc1ccnc(N2C(=O)CC[C@H]2C(=O)N(c2cncc(F)c2)[C@H](C(=O)NC2CC(F)(F)C2)c2ccccc2Cl)c1 [AG-120]")
0.715
>>> test_value("O=C(Nc1cccc(C(F)(F)F)c1)Nc1cc(S(=O)(=O)NC2CC2)ccc1-c1ccsc1 [AGI-6780]")
0.612
>>> test_value("Nc1nc(Cl)nc2c1ncn2[C@@H]1O[C@H](CO)[C@@H](O)[C@@H]1F [Clofarabine]")
0.0384
>>> test_value("CCN1CCN(Cc2ccc(Nc3ncc(F)c(-c4cc(F)c5nc(C)n(C(C)C)c5c4)n3)nc2)CC1")
0.00593

----------
- Test system: primary AML patient cells (S081)
- assay.overview: viability relative to DMSO control (fraction); higher = less drug effect (more viable cells)
- measurement.context: 3 µM; 48 h
quantity.measured: viability

>>> test_value("N#Cc1ccnc(N2C(=O)CC[C@H]2C(=O)N(c2cncc(F)c2)[C@H](C(=O)NC2CC(F)(F)C2)c2ccccc2Cl)c1 [AG-120]")
1.11
>>> test_value("Cc1cc(Nc2ncc(Cl)c(Nc3ccccc3S(=O)(=O)C(C)C)n2)c(OC(C)C)cc1C1CCNCC1 [Ceritinib]")
0.982
>>> test_value("CS(=O)(=O)c1ccc(C(=O)Nc2ccc(Cl)c(-c3ccccn3)c2)c(Cl)c1 [Vismodegib]")
0.923
>>> test_value("CCN1CCN(Cc2ccc(Nc3ncc(F)c(-c4cc(F)c5nc(C)n(C(C)C)c5c4)n3)nc2)CC1")
0.537

----------
- System: primary AML patient cells (S011)
- assay.overview: viability relative to DMSO control (fraction); higher = less drug effect (more viable cells)
- measurement.context: 0.12 µM; 48 h
Label 1 when viability is strictly below 1; otherwise label 0.

>>> label_value("O=C(O)CSc1cc(NS(=O)(=O)c2ccc(Br)cc2)c2ccccc2c1O [UMI-77]")
1
>>> label_value("C[C@@H](Oc1cc(-c2cnn(C3CCNCC3)c2)cnc1N)c1c(Cl)ccc(F)c1Cl [Crizotinib]")
0
>>> label_value("O=C(c1cc(Cc2n[nH]c(=O)c3ccccc23)ccc1F)N1CCN(C(=O)C2CC2)CC1 [Olaparib]")
1
>>> label_value("N#CC[C@H](C1CCCC1)n1cc(-c2ncnc3[nH]ccc23)cn1 [Ruxolitinib]")
1
